Every entry's value here was drawn from the nanobody polyreactivity screen of Harvey et al. (2022).

Assay: yeast display, Sf9 membrane polyspecificity reagent, FACS + sequencing; frameworks hold sequencing errors
measurement.label: polyreactivity (PSR sort gate)

seq.string: QVQLVESGGGLVQAGGSLRLSCAASGSIFDTNAMGWYRQAPGKERELVAAISFSGVRTYYADSVKGRFTISRDNAKNTVYLLMNSLKPEDTAVYYCNRLRISPGWRYNYWGQGTQVTVSS
measurement.label: polyreactivity (PSR sort gate)
value.reported: high polyreactivity
//
seq.string: QVQLVESAGGLFQAGGSLRLSCAASGRTFYSNTMGWYRQAPGKEREFVAAIPSIVGSTYYADSVKGRFTISRDNSKNTVYLQMKSLKPEDTAVYDCAVTDYYSYLLRYDSWGQGTEVTVSS
measurement.label: polyreactivity (PSR sort gate)
value.reported: low polyreactivity
//
seq.string: QVQLVESGGGLVQAGCSLRLSSAASGSIFDDNALGRYRPAPGTDRELVAAISDNDGSTYYADSVKGRFTISRDNAKTTVYVQMNSLKADETAVYYCAATAQEWYPAVYNQYYYWGQGTQVTVSS
measurement.label: polyreactivity (PSR sort gate)
value.reported: low polyreactivity
//
seq.string: QVQLVESGGGLVQAGGSLRLSCAASGSIFIFNTMGWYRQAPGKETELVASISSSGSTYYADSVKGRFTISRANAKNTVYLQMNSLKPEDTAVYYCAADAEDRPSWPGNSEYEYWGQGTQVTVSS
measurement.label: polyreactivity (PSR sort gate)
value.reported: low polyreactivity
//
seq.string: QVQLVESGGGLVQAGGSLRLSCAASGSIFETYDMGWYRQAPGKERELVAAITLSGGSTYYADSVKGRFTISRDNAKNTVYLQMNSLKPEDTAVYYCAADDSGVKVWEGDYWGQGTQVTVSS
measurement.label: polyreactivity (PSR sort gate)
value.reported: low polyreactivity
//
seq.string: HVQLVESGGGLVQAGGSLRLSCPASGRIFYRNPMGWYRQAPGKERELVAGISKRGGSTYYADSVKGRFTISRDNAKNTVYLQMNSLKPEDTAVYYCATVPYSPPSAGPEYDYWGQGTQVTVSS
measurement.label: polyreactivity (PSR sort gate)
value.reported: high polyreactivity
//
seq.string: QVQLVESGGGLVQAGGSLRLSCAASGSIFTYYAMGWYRPEPGKERELVAAISRRGTRTYYADSVKGRFTISRDNAKNTVYLQMNSLKPEDTAVYYCAAEYTETGTAKMEYWGQGTQVTVSS
measurement.label: polyreactivity (PSR sort gate)
value.reported: high polyreactivity
//
seq.string: QVQLVESGGGLVQAGGSLRLICAASGSTFLSNAMGWYRQATGKERELVAAITTSGTSTFYSDSVKGRFTISRDNAKNTVYLQMNSMKPEDTAVYYCAADSAHRYIPVQGYDYWGQGTQVTVSS
measurement.label: polyreactivity (PSR sort gate)
value.reported: low polyreactivity
//
seq.string: QVQLVESGGGLVQAGGSLRLSCAASGSTFESNAMGWYRQAPGKERELVAAISRGGNTYYADSVKGRFTISRDNAKNTVYLQMNSLKPEDTAVYYCAADGAGWLDYGYWGQGTQVTVSS
measurement.label: polyreactivity (PSR sort gate)
value.reported: low polyreactivity
//
seq.string: QVQLVESGGGLVQAGGSLPLSCAASGSIFGGNDMGWYRQAPGKERELVAAITSSGGSTYYADSVKGRFTITRDNAKITVYCQMNRLKPEVTAVYYCNADYYGPYRDYGYWGQGTQVTVSS
measurement.label: polyreactivity (PSR sort gate)
value.reported: low polyreactivity
//
seq.string: QVQLVESGGGLVQAGGSLRLSCAASGSISGSYAMGWYRQAPGKERELVASITTSGGGTYYADSVKGRFTISRDNAKNTVYLQMNSLKPEDTAVFYCAVEYGYPYAGLDYWGQGTQVTVSS
measurement.label: polyreactivity (PSR sort gate)
value.reported: low polyreactivity
